Provenance of the data: PubChem BioAssay (NCI)

system: SNB-75 CNS; assay: NCI tumour cell line growth inhibition, 48 h
Quick rule for you: TGI at 8 µM or higher means YES, lower means NO.

Use the examples below as a reference point.
| molecule | assigned label |
| --- | --- |
| c1ccc(NN(Cc2cnccn2)c2ccccc2)cc1 | YES |
| COc1cc2c(c(O)c1O)C(=O)C1CCC(=O)N1C2c1cccc2ccccc12 (stereo unspecified) | YES |
| O=C(/C=C(/C=C/c1ccc2[nH]ccc2c1)OB(F)F)/C=C/c1ccc2[nH]ccc2c1 | YES |
| Cc1ccc(C)c(NC(=O)C(=O)C(C(=O)c2ccc3ccccc3c2)C2OC(=O)c3ccccc32)c1 (stereo unspecified) | YES |
| Cn1c(=O)c2c(nc3n(CC(O)CCl)c(=O)ccn23)n(C)c1=O (stereo unspecified) | YES |
| COc1cc(C)ccc1C(=O)c1ccc(C)cc1OC | YES |
| O=C1OCC2=C1C(c1cccc(F)c1)c1cc3c(cc1N2CCO)OCO3 (stereo unspecified) | NO |
| O=C(O)CN(CC(=O)O)C1CCCCC1N1CC(=O)OC(=O)C1 (stereo unspecified) | YES |
| c1ccc(-c2csc3c4ccccc4c4ccccc4[n+]23)cc1 | NO |
| O=C1Nc2ccccc2C1(O)C/C(=N/O)c1ccc2ccccc2c1 (stereo unspecified) | YES |

*Q* Tell me whether TGI is at least 8 µM here: N#CC(N)=Nc1ccccc1
*A* YES

*Q* Tell me whether TGI is at least 8 µM here: CC(=O)c1c(-c2cccc3ccccc23)c(C#N)c(=S)n(C2OC(CO)C(O)C(O)C2O)c1C (stereo unspecified)
*A* YES

*Q* Tell me whether TGI is at least 8 µM here: CCc1c2c(nc3ccc(OCc4ccc(B(O)O)cc4)cc13)-c1cc3c(c(=O)n1C2)COC(=O)[C@]3(O)CC
*A* NO

*Q* Tell me whether TGI is at least 8 µM here: O=C(O)CCNS(=O)(=O)c1ccc(NC(=O)c2ccccc2)cc1
*A* YES

*Q* Tell me whether TGI is at least 8 µM here: O=C1[C@H](O)[C@@H]2C(O)O[C@H]3[C@@H]2N1C[C@H]3[Si](c1ccccc1)(c1ccccc1)c1ccccc1 (stereo partly specified)
*A* YES

*Q* Tell me whether TGI is at least 8 µM here: COC(=O)/C(=N\NC(C)(C)C)C(C(=O)OC)C(=O)C(=O)Nc1cc(Cl)ccc1Cl (stereo unspecified)
*A* YES

*Q* Tell me whether TGI is at least 8 µM here: O=C(Nc1cccc(Cl)c1)Nn1cnnc1
*A* YES

*Q* Tell me whether TGI is at least 8 µM here: COC1CC(N)(c2ccccc2)C(O)C(C)O1 (stereo unspecified)
*A* YES

*Q* Tell me whether TGI is at least 8 µM here: CC1=C2C(=C[C@@](C)(CO)[C@@H]2OC(=O)N(C)CCN(C)C(=O)OC(C)(C)C)C(=O)[C@](C)(O)C12CC2
*A* YES

*Q* Tell me whether TGI is at least 8 µM here: O=C(N/N=C/c1ccccc1O)N/N=C/c1ccccc1O
*A* YES

* * *

TGI values by entry
tested on: SNB-75 CNS; assay: NCI tumour cell line growth inhibition, 48 h
Hi! Could you send only the number? It should be in µM, unit omitted.

| chemical smiles | TGI (µM) |
| --- | --- |
| Cc1ccc2cnc(N)c(C#Cc3cc(C(=O)Nc4ccc(CN5CCN(C)CC5)c(C(F)(F)F)c4)cnc3C)c2c1 | 1.61 |

*Q* State the recorded TGI for this entry: CCOC(=O)c1c(C)n(Cc2ccc(Cl)cc2Cl)c2c1cc(O)c1[nH]c3c(c12)CCCC3
*A* 48.6
